- SYSTEM TESTED: Chromo domain-containing protein 1 (Saccharomyces cerevisiae (strain ATCC 204508 / S288c) (Baker's yeast)) (UniProt P32657)
- Sequence (P32657 whole entry, the tested form may be a part): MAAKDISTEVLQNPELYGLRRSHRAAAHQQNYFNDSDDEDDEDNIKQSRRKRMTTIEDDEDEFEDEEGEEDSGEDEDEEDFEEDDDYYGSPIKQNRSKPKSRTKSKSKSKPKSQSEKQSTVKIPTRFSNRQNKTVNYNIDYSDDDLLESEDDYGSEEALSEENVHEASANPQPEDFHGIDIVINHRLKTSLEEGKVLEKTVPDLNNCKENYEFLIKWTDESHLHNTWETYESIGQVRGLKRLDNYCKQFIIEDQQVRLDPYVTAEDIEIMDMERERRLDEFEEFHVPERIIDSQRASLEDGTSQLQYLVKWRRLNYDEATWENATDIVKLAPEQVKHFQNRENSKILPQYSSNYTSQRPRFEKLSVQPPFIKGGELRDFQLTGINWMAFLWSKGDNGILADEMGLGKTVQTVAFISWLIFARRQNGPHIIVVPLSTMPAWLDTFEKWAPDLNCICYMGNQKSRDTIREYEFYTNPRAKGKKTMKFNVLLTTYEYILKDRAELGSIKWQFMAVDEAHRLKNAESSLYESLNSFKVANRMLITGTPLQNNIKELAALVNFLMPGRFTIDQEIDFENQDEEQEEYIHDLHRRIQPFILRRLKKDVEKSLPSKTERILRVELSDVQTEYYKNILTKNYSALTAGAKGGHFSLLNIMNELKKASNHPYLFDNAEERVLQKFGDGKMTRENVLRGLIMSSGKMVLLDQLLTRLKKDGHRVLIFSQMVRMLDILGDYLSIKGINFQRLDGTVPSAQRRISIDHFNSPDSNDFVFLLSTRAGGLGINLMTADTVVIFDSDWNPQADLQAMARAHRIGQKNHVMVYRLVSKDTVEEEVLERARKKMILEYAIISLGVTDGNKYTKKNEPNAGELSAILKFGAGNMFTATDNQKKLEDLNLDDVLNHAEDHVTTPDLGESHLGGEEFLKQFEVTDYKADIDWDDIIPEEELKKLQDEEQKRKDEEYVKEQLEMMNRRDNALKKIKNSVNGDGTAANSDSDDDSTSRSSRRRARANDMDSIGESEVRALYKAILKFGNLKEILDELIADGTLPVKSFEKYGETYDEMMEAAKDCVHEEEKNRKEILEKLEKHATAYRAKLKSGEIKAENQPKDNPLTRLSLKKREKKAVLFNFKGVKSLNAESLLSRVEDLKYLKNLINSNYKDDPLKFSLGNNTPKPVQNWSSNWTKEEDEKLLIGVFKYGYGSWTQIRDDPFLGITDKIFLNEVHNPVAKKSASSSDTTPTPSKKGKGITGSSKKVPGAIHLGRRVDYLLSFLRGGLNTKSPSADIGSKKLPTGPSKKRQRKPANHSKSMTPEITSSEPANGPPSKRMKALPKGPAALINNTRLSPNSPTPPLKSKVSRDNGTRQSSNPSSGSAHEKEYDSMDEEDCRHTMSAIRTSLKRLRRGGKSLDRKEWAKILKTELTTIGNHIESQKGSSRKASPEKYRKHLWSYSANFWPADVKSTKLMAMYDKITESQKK
- EXPERIMENTAL PROTOCOL: ScCHD-1 Enzyme Inhibition Assay; note: in the data most compounds retested in dose-response had high values
- Assay type: functional
- Design: scale not given: direction of the effect not stated beside the values
- EXPERIMENTAL CONTEXT: 30 µM
REPORTED METRIC: Percent Effect (%)
// note: answer is a bare numeric in %

Cc1nsc(NC(=O)N2CCN(Cc3ccc(F)cc3)C(=O)C2)n1 | 3.97
CNCC(=O)N1CCCC(c2cccc(Nc3nc(C)cc(C)n3)n2)C1 (centres undefined) | -21.5
COc1ccc(COCC(O)CNC(=O)c2cc(C)cc(C)c2)cc1 (centres undefined) | -15.9
CNc1cncc(C2CCCN2C(=O)c2ccc3oc(C)cc3c2)n1 (centres undefined) | -26.1

Please find the next compound below.
Request: Please look up its Percent Effect: Cc1cc(C)n(CC2CN(CC(=O)Nc3c(C)n[nH]c3C)CCO2)n1 (centres undefined)
Result: -3.32

---

- SYSTEM TESTED: Protein translocase subunit SecA (Escherichia coli (strain K12)) (UniProt P10408)
- Sequence (P10408 whole entry): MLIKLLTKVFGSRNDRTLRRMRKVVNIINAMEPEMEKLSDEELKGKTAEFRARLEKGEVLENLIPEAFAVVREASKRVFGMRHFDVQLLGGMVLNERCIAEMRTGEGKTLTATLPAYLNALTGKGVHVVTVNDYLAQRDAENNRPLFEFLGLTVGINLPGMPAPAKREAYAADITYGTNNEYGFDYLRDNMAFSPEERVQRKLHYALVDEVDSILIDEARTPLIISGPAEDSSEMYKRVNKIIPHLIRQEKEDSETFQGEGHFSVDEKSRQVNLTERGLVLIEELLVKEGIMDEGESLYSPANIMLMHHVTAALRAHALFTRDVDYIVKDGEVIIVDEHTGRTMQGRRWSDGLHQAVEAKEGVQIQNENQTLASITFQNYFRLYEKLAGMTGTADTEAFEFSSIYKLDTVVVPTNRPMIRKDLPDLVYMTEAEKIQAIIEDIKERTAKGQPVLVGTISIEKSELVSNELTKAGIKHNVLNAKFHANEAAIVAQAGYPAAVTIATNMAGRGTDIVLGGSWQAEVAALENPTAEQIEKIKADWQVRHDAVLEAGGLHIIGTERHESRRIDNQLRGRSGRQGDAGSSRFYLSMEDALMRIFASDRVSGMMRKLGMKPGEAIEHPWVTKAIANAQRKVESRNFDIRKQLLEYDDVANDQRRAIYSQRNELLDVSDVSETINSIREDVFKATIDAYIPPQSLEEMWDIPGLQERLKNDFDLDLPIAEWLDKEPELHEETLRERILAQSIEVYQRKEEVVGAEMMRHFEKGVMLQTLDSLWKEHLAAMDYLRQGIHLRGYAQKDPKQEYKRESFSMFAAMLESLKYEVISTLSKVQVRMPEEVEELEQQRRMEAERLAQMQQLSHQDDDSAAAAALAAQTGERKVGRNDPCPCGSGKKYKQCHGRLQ
- EXPERIMENTAL PROTOCOL: Assay to Identify E. coli SecA ATPase Inhibitors
- Assay type: functional
- Parameters: scale not given: direction of the effect not stated beside the values
- EXPERIMENTAL CONTEXT: 30 µM
Potency and affinity values are given separately.
REPORTED METRIC: Percent Effect (%)
Quick note: give the figure in %, leave out the unit.

Cn1cccc1C(=O)N1CCCC2(CCN(CCN3CCCC3)C2=O)C1 (stereo unspecified) | -6.99
COc1ccc(CN2C[C@@H]3OCCN(CC4CCCO4)[C@@H]3C2)cc1 (stereo partly specified) | -0.662
O=C(NC1CCCC1)N1CCCC(c2nccn2Cc2ccncc2)C1 (stereo unspecified) | -3.14
Cc1ccc2c(n1)N(CCn1cccn1)CCN(C(=O)NC1CC1)C2 | -4.03
CSC(C)C(=O)N1CCCN(Cc2cnn(C(C)C)c2)CC1 (stereo unspecified) | 1.59

Request: # lookup: Percent Effect of CCc1ccc(C(=O)N2CCCC(n3cncn3)C2)o1 (stereo unspecified)
Result: -10.1

Request: Field request: Percent Effect | item: CCNC(=O)CCN1CCC(c2cc(N3CCOCC3)nc(C)n2)CC1
Result: -3.37

---

- Test system: Trypanosoma cruzi
- EXPERIMENTAL PROTOCOL: Trypanosoma cruzi phosphomannomutase and mannose-1-phosphate guanylyltransferase assay
- Format: functional
- Design: scale not given: direction of the effect not stated beside the values
- EXPERIMENTAL CONTEXT: 10 µM
REPORTED METRIC: Percent Effect

// below: answered molecules
Cn1ccc(C(=O)N2CCN(c3ncccn3)CC2)cc1=O | -3.49%
COCc1nc(C(=O)NS(=O)(=O)c2cc(F)ccc2F)cs1 | -1.41%
CCN1CCN(CC(O)c2ccc(F)cc2)CC1 (centres undefined) | -2.92%
CC(C)C(C(=O)N1CCC(N(C)c2cccnn2)CC1)n1cncn1 (centres undefined) | -3.49%

Request: Kindly state the measured Percent Effect obtained for OC(COc1ccccc1)CN1CCc2c(ncn2C2CC2)C1 (centres undefined) with Trypanosoma cruzi.
Result: -6.02%

Request: Form field: Percent Effect recorded for CC(C)c1nnc(NC(=O)NCc2ccc(CO)c(F)c2)s1 with Trypanosoma cruzi (enter value)
Result: -1.95%

Request: For Trypanosoma cruzi, provide Percent Effect of CN(C(=O)C1CSCN1S(=O)(=O)c1ccc(F)cc1)C1CC1 (centres undefined) please.
Result: -5.57%

Request: Give recorded Percent Effect with Trypanosoma cruzi for the following molecule: COc1ccccc1OCC(=O)Nc1ncccc1Cl
Result: 2.62%

Request: What is its Percent Effect for Trypanosoma cruzi? Entry: CCCn1c(C)cc(C(=O)CN2C(=O)c3ccccc3CS2(=O)=O)c1C
Result: 0%

Request: Any idea what Percent Effect came out for Cc1cnn(CCNCc2ccc(F)cc2Cl)c1 on Trypanosoma cruzi?
Result: -1.02%

---

Items are presented alongside their recorded Percent Effect.
- SYSTEM TESTED: Protein translocase subunit SecA (Escherichia coli (strain K12)) (UniProt P10408)
- EXPERIMENTAL PROTOCOL: Assay to Identify E. coli SecA ATPase Inhibitors
- Format: functional
- Parameters: scale not given: direction of the effect not stated beside the values
- EXPERIMENTAL CONTEXT: 30 µM
Measured potencies and affinities stand elsewhere.
Report the figure in % without appending any unit label.

Below, each entry is followed by its recorded Percent Effect result.
COCCn1ccc(NC(=O)Nc2ccc(C(N)=O)c(F)c2)n1 | -4.16
O=C(NCCNc1ncccn1)C1CCN(C(=O)C2CC2)CC1 | -2.16

Now for the compound whose Percent Effect we want.
Request: // Percent Effect lookup, key: CC(O)CN1CCC(CNCc2ccccc2OC(F)(F)F)CC1 (stereo unspecified)
Result: -4.07

---

Below: a set of entries, each annotated with reported Percent Effect.
- SYSTEM TESTED: Protein translocase subunit SecA (Escherichia coli (strain K12)) (UniProt P10408)
- EXPERIMENTAL PROTOCOL: Assay to Identify E. coli SecA ATPase Inhibitors
- Format: functional
- Design: scale not given: direction of the effect not stated beside the values
- EXPERIMENTAL CONTEXT: 30 µM
Potency and affinity values are given separately.
Answer format: numeric, % implied, no suffix.

Below are worked cases with known answers.
Cc1ccc(S(=O)(=O)N2CCC3(CC(C(=O)NCC4CC4)=NO3)C2)cc1 (stereo unspecified) | -5.9
O=C1C(NCc2nnc3n2CCCC3)CCN1CC(F)(F)F (stereo unspecified) | -2.08
O=C([C@H]1C[C@H]2OCC[C@H]2N(CCc2ccccc2)C1)N1CCCCO1 | -4.49
COc1ccc(C)cc1CN(C)Cc1nc2c(cnn2C)c(=O)[nH]1 | -1.35
CCc1nc(C)c(C(=O)N2C[C@H]3CC[C@@H]2CN(S(=O)(=O)N(C)C)C3)s1 | -5.92
O=C(CN1CCC(c2ccnn2CCO)CC1)NCC1CC1 | -2.3

Request: Form field - read-out: Percent Effect; system: Protein translocase subunit SecA (Escherichia coli (strain K12)) (UniProt P10408); submitted item: Cc1nccnc1N1CC[C@@H](NC(=O)c2cnccn2)[C@H](O)C1
Result: -5.54

Request: Write down the reported Percent Effect of CNC(=O)COc1ccc(CNCc2ccc(F)cc2F)cc1 , test system: Protein translocase subunit SecA (Escherichia coli (strain K12)) (UniProt P10408).
Result: -3.24

Request: Query the reported Percent Effect for Protein translocase subunit SecA (Escherichia coli (strain K12)) (UniProt P10408); item: O=C(NCC1CC1)C1CSCN1S(=O)(=O)c1cccc(F)c1 (stereo unspecified)
Result: -1.87

Request: Requested read-out Percent Effect, target or system Protein translocase subunit SecA (Escherichia coli (strain K12)) (UniProt P10408), entry CCn1ncnc1C(NC(=O)CC1CCN(C(C)C)CC1)C1CC1 (stereo unspecified)
Result: -12.1

Request: # get_value(readout= Percent Effect, system= Protein translocase subunit SecA (Escherichia coli (strain K12)) (UniProt P10408)) for O=C(NC1CC1)[C@@H]1CCO[C@@H]2CCN(C3CCOCC3)C[C@H]21
Result: -7.35

---

Each entry below carries its recorded Percent Effect.
- SYSTEM TESTED: Arginase-2, mitochondrial (Homo sapiens) (UniProt P78540)
- Sequence (whole entry): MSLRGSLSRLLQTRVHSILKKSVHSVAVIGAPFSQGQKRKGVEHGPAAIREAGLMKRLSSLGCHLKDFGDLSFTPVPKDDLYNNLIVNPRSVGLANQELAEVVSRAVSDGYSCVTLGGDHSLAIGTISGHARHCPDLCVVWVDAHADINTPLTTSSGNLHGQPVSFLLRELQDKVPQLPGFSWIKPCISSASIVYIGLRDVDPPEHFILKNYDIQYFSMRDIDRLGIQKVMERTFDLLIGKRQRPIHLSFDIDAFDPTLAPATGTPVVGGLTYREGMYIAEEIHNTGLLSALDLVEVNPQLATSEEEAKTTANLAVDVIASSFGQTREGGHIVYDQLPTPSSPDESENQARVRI
- EXPERIMENTAL PROTOCOL: in vitro enzyme assay to detect the production of urea directly proportional to the activity of Arginase II; note: in the data most compounds retested in dose-response had high values
- Assay type: functional
- Parameters: scale not given: direction of the effect not stated beside the values
- EXPERIMENTAL CONTEXT: 33.3 µM
Response body: numeric value in %, unit text excluded.

// below: answered molecules
COCC(=O)N(C)Cc1ccc(Cl)c(Cl)c1 | -5.92
Cc1ccc(CN2CCCC3(CCN(S(=O)(=O)N(C)C)C3)C2)o1 (stereo unspecified) | 3.03
O=C(Cn1cc(-c2ccccc2)ncc1=O)Nc1nnc[nH]1 | 8.74
COCCN(CCc1ccccc1)Cc1nc2c(cnn2C)c(=O)[nH]1 | -2.81

Request: Test system Arginase-2, mitochondrial (Homo sapiens) (UniProt P78540); read-out Percent Effect; what value for CCC1CN(C(=O)c2ccc(=O)[nH]c2)CCC(=O)N1Cc1ccccc1 (stereo unspecified) ?
Result: 3.09

Request: Please state recorded Percent Effect (tested on Arginase-2, mitochondrial (Homo sapiens) (UniProt P78540)) of c1cnc(-c2nc(CNCCn3cccn3)cs2)nc1
Result: -2.68
